- measuredOn: Dopamine, D4.4 (Human Recombinant) (Homo sapiens, UniProt P21917)
- Construct: expressed in transfected cells; host or cells: CHO cells (membranes)
- assayText: dopamine D4.4 receptor binding assay, [3H]spiperone, human recombinant (CHO cells)
- conditionSet: 1 h, concentration 3.0E-8, average, N = 2, read-out: % Specific Binding
- Protocol: [The source words this procedure for another target and reports this target under the same test.] Following incubation, the membranes were rapidly filtered under vacuum through GF/B glass fiber filters (Packard). The filters were then washed several times with an ice-cold buffer using a Packard cell harvester. Bound radioactivity was measured with a scintillation counter (Topcount, Packard) using a liquid scintillation cocktail (Microscint 0, Packard). […] Results are expressed as a percent of control specific binding obtained in the presence of the test compounds. […]
propertyMeasured: activity at 0.03 µM (%)
Numbers only here, please. The scale is %.

Give Dopamine, D4.4 (Human Recombinant) (Homo sapiens, UniProt P21917) activity at 0.03 µM for `COc1ccc(CN2CCC(c3nc(-c4ccccc4C)no3)CC2)cc1` 77.1

For `Clc1cccc(CN2CCC(c3nc(-c4cccs4)no3)CC2)c1` then? 60

# repeat for `Cc1ccc(-c2noc(C3CCN(Cc4ccc(Cl)c(Cl)c4)CC3)n2)cc1` 76.3

Also check `Clc1ccc(CN2CCC(c3nc(-c4cccs4)no3)CC2)cc1` 29.7

====

- measuredOn: Dopamine, D2s (Human Recombinant) (Homo sapiens, UniProt P14416)
- Construct: expressed in transfected cells; host or cells: A9L cells (membranes)
- Sequence (P14416 1-414 isoform P14416-2): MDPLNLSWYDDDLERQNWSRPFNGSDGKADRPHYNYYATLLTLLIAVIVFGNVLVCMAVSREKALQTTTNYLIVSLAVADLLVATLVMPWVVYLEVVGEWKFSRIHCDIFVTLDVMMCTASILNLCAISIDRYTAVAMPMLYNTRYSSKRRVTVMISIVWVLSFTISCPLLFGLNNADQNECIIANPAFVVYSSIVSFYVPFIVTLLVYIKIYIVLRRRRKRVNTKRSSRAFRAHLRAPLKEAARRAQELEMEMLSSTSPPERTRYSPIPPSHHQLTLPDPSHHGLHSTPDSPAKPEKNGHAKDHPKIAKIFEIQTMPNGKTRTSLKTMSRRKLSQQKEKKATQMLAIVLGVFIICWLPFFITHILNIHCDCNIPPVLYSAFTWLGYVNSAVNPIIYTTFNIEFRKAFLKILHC
- assayText: dopamine D2 receptor binding assay, [3H]spiperone, human recombinant (A9L cells)
- conditionSet: 1 h, concentration 1.0E-9, average, N = 2, read-out: % Specific Binding
propertyMeasured: activity at 0.001 µM

Look at this compound and give its reported activity at 0.001 µM. Clc1ccc(CN2CCC(c3nc(-c4cccs4)no3)CC2)cc1 [Compound 5b] 104%

Can you check Cc1ccc(-c2noc(C3CCN(Cc4ccc(Cl)c(Cl)c4)CC3)n2)cc1 [Compound 5a] next? 93.4%

Same lookup for Clc1cccc(CN2CCC(c3nc(-c4cccs4)no3)CC2)c1 [Compound 5c] , please. 94.8%

Now try COc1ccc(CN2CCC(c3nc(-c4ccccc4C)no3)CC2)cc1 [Compound 5d] . 104%

====

- measuredOn: Dopamine, D4.4 (Human Recombinant) (Homo sapiens, UniProt P21917)
- Construct: expressed in transfected cells; host or cells: CHO cells (membranes)
- Sequence (P21917 1-419): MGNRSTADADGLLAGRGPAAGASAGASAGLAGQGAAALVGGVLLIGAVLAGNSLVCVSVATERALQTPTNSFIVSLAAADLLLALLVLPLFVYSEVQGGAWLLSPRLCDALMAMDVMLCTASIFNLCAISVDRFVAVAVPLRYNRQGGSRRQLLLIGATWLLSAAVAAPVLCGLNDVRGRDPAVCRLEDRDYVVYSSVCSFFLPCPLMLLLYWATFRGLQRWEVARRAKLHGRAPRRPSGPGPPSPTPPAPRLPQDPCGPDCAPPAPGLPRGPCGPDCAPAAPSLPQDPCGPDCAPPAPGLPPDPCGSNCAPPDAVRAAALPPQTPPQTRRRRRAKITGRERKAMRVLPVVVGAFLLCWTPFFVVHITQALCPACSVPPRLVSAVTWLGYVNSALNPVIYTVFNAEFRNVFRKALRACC
- assayText: dopamine D4.4 receptor binding assay, [3H]spiperone, human recombinant (CHO cells)
- conditionSet: 1 h, concentration 3.0E-7, average, N = 2, read-out: % Specific Binding
propertyMeasured: activity at 0.3 µM (%)
# output: bare number, implied unit %

Which activity at 0.3 µM value belongs to Clc1ccc(CN2CCC(c3nc(-c4cccs4)no3)CC2)cc1 [Compound 5b] ? 4.28

Consider next the compound Cc1ccc(-c2noc(C3CCN(Cc4ccc(Cl)c(Cl)c4)CC3)n2)cc1 [Compound 5a] in the same way. 80.4

Try this compound too: Clc1cccc(CN2CCC(c3nc(-c4cccs4)no3)CC2)c1 [Compound 5c] 4.79

Next entry: COc1ccc(CN2CCC(c3nc(-c4ccccc4C)no3)CC2)cc1 [Compound 5d] 22.9

====

Record form. Attribute: activity at 10 µM. Fill in for each entry.
- measuredOn: Dopamine, D4.4 (Human Recombinant) (Homo sapiens)
- Construct: expressed in transfected cells; host or cells: CHO cells (membranes)
- assayText: dopamine D4.4 receptor binding assay, [3H]spiperone, human recombinant (CHO cells)
- conditionSet: 1 h, concentration 1.0E-5, average, N = 2, read-out: % Specific Binding
Express it in %; write the number only.

# activity at 10 µM lookup, item COc1ccc(CN2CCC(c3nc(-c4ccccc4C)no3)CC2)cc1 [Compound 5d] 2.15

Same thing, different compound: Clc1ccc(CN2CCC(c3nc(-c4cccs4)no3)CC2)cc1 [Compound 5b] -3.8

For Cc1ccc(-c2noc(C3CCN(Cc4ccc(Cl)c(Cl)c4)CC3)n2)cc1 [Compound 5a] then? 3.57

Would you kindly repeat that for Clc1cccc(CN2CCC(c3nc(-c4cccs4)no3)CC2)c1 [Compound 5c] ? -7.32

====

Please provide measured activity at 0.01 µM for the entries that follow.
- measuredOn: Dopamine, D4.4 (Human Recombinant) (Homo sapiens)
- Construct: expressed in transfected cells; host or cells: CHO cells (membranes)
- assayText: dopamine D4.4 receptor binding assay, [3H]spiperone, human recombinant (CHO cells)
- conditionSet: 1 h, concentration 1.0E-8, average, N = 2, read-out: % Specific Binding
Form entry: enter the amount, then its unit.

Would you mind telling me what activity at 0.01 µM value was observed for Cc1ccc(-c2noc(C3CCN(Cc4ccc(Cl)c(Cl)c4)CC3)n2)cc1 [Compound 5a] ? 81%

Item: COc1ccc(CN2CCC(c3nc(-c4ccccc4C)no3)CC2)cc1 [Compound 5d] 92.1%

Moving on to the next compound: Clc1ccc(CN2CCC(c3nc(-c4cccs4)no3)CC2)cc1 [Compound 5b] 53.6%

// next record Clc1cccc(CN2CCC(c3nc(-c4cccs4)no3)CC2)c1 [Compound 5c] 81.9%

====

- measuredOn: Dopamine, D2s (Human Recombinant) (Homo sapiens, UniProt P14416)
- Construct: expressed in transfected cells; host or cells: A9L cells (membranes)
- assayText: dopamine D2 receptor binding assay, [3H]spiperone, human recombinant (A9L cells)
- conditionSet: 1 h, concentration 1.0E-7, average, N = 2, read-out: % Specific Binding
Provide the recorded activity at 0.1 µM for the entries that follow.
Field: numeric (%). Do not append units.

Would you kindly share the measured activity at 0.1 µM for `Clc1ccc(CN2CCC(c3nc(-c4cccs4)no3)CC2)cc1` ? 112

Queued: `Clc1cccc(CN2CCC(c3nc(-c4cccs4)no3)CC2)c1` 87.7

Repeat for the following compound: `COc1ccc(CN2CCC(c3nc(-c4ccccc4C)no3)CC2)cc1` 105

Further, for `Cc1ccc(-c2noc(C3CCN(Cc4ccc(Cl)c(Cl)c4)CC3)n2)cc1` ? 84.7

====

- measuredOn: Dopamine, D2s (Human Recombinant) (Homo sapiens, UniProt P14416)
- Construct: expressed in transfected cells; host or cells: A9L cells (membranes)
- assayText: dopamine D2 receptor binding assay, [3H]spiperone, human recombinant (A9L cells)
- conditionSet: 1 h, concentration 1.0E-8, average, N = 2, read-out: % Specific Binding
Would you kindly list activity at 0.01 µM for each of these molecules?
Write the answer as a number in %, unit excluded.

Param item = Clc1cccc(CN2CCC(c3nc(-c4cccs4)no3)CC2)c1 [Compound 5c] ; retrieve measured activity at 0.01 µM. 88.3

Same lookup for Clc1ccc(CN2CCC(c3nc(-c4cccs4)no3)CC2)cc1 [Compound 5b] , please. 103

Same lookup for COc1ccc(CN2CCC(c3nc(-c4ccccc4C)no3)CC2)cc1 [Compound 5d] , please. 100

Note, next up: Cc1ccc(-c2noc(C3CCN(Cc4ccc(Cl)c(Cl)c4)CC3)n2)cc1 [Compound 5a] 89.7

====

- measuredOn: Dopamine, D2s (Human Recombinant) (Homo sapiens, UniProt P14416)
- Construct: expressed in transfected cells; host or cells: A9L cells (membranes)
- assayText: dopamine D2 receptor binding assay, [3H]spiperone, human recombinant (A9L cells)
- conditionSet: 1 h, concentration 3.0E-10, average, N = 2, read-out: % Specific Binding
For each entry below, report its activity at 0.0003 µM value.
Output spec: scalar in %, unitless text.

Please report the recorded activity at 0.0003 µM for `Clc1ccc(CN2CCC(c3nc(-c4cccs4)no3)CC2)cc1` . 116

Same question for `COc1ccc(CN2CCC(c3nc(-c4ccccc4C)no3)CC2)cc1` please. 85.2

Please give the result for `Clc1cccc(CN2CCC(c3nc(-c4cccs4)no3)CC2)c1` too. 98.5

Same for `Cc1ccc(-c2noc(C3CCN(Cc4ccc(Cl)c(Cl)c4)CC3)n2)cc1` 89.9
